Items are presented alongside their recorded IC50.
Molecular target: Dual specificity tyrosine-phosphorylation-regulated kinase 2 (Homo sapiens, UniProt Q92630)
Sequence (Q92630 whole entry): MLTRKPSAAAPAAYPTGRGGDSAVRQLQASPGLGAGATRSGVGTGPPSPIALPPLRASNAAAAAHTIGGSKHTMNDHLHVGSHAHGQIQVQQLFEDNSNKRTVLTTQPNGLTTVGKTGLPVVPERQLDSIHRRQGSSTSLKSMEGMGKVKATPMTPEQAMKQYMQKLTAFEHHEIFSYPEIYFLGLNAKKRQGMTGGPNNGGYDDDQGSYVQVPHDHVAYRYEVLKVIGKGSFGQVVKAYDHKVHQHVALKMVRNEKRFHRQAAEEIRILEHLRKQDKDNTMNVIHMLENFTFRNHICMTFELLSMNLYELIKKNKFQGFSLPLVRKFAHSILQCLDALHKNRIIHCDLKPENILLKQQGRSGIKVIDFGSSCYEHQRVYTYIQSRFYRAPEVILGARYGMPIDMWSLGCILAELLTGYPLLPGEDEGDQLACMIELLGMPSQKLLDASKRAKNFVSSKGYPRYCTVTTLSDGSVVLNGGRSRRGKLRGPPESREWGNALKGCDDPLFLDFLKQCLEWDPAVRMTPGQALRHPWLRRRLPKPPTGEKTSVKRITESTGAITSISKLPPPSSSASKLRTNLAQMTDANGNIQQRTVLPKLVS
Experiment: Inhibition of human recombinant DYRK2 using KKISGRLSPIMTEQ as substrate incubated for 60 mins in the presence of ATP by ADP-Glo kinase assay
endpointLabel: IC50 (µM)

moleculeSmiles: COc1cc(/C=C/C(=O)CC(=O)/C=C/c2ccc(O)c(OC)c2)ccc1O
recordedNumber: 0.01
--
moleculeSmiles: O=C1/C(=C/c2ccccc2Br)CNC/C1=C\c1ccccc1Br
recordedNumber: 0.024
